The following molecules are listed with their measured melting point values.

These solved cases illustrate the format of a correct answer.
## Input Tell us which melting point value is on record for COc1ccc(C2(C(=O)N(CCCc3cccc(F)c3)Cc3nc(C(=O)[N-]S(=O)(=O)N(C)C)c(C)s3)CC2)nc1.[K+]
## Output 219 to 221 °C

## Input Tell us which melting point value is on record for COCc1c(OC)cc(C(=O)N(CCCc2ccccc2)Cc2nc(C(=O)NS(=O)(=O)NOC)c(C)s2)cc1OC [Example 161]
## Output 151 to 153 °C

## Input Tell us which melting point value is on record for CCS(=O)(=O)NC(=O)c1nc(CN(CCCc2ccccc2)C(=O)[C@H](O)c2ccc(OC)cc2F)sc1C [Example 278]
## Output 111 to 112 °C

## Input Tell us which melting point value is on record for COc1cc(C(=O)N(CCCc2ccc(Cl)s2)Cc2nc(C(=O)NS(N)(=O)=O)cs2)cc(OC)c1C [Example 110]
## Output 154 to 156 °C

## Input Tell us which melting point value is on record for COc1ccc(C2(C(=O)N(CCCc3ccccc3)Cc3nc(C(=O)NS(=O)(=O)N(C)C)c(C)s3)CC2)nc1 [Example 31]
## Output 125 to 126 °C

Others:
## Input Tell us which melting point value is on record for COc1cc(C(=O)N(CCCc2ccccc2)Cc2nc(C(=O)NS(C)(=O)=O)c(C)s2)cc(OC)c1C [Example 109]
## Output 128 to 131 °C

## Input Tell us which melting point value is on record for COc1ccc([C@@H](O)C(=O)N(CCCc2ccccc2)Cc2nc(C(=O)NS(=O)(=O)C(C)C)c(C)s2)cc1 [Example 285]
## Output 137 to 138 °C

## Input Tell us which melting point value is on record for CCc1c(OC)cc(C(=O)N(CCCc2ccccc2)Cc2nc(C(=O)NS(=O)(=O)NC)c(C)s2)cc1OC [Example 153]
## Output 162 to 164 °C

## Input Tell us which melting point value is on record for CCNS(=O)(=O)NC(=O)c1csc(CN(CCCc2ccccc2)C(=O)c2cc(OC)c(C)c(OC)c2)n1 [Example 71]
## Output 143 to 144 °C

## Input Tell us which melting point value is on record for COc1ccc(C2(C(=O)N(CCCc3ccco3)Cc3nc(C(=O)NS(=O)(=O)N(C)C)c(C)s3)CC2)nc1 [Example 221]
## Output 112 to 113 °C

## Input Tell us which melting point value is on record for COC(=O)N(C)S(=O)(=O)NC(=O)c1csc(CN(CCCc2ccccc2)C(=O)c2cc(OC)c(C)c(OC)c2)n1 [Example 89]
## Output 135 to 137 °C

## Input Tell us which melting point value is on record for CCS(=O)(=O)NC(=O)c1nc(CN(CCCc2cccs2)C(=O)[C@H](O)c2ccc(OC)cc2)sc1C [Example 272]
## Output 124 to 126 °C

## Input Tell us which melting point value is on record for COc1ccc(C(O)C(=O)N(CCCc2ccccc2)Cc2nc(C(=O)NS(=O)(=O)N(C)C)c(C)s2)cn1 (stereo not shown) [Example 28]
## Output 178 to 179 °C

## Input Tell us which melting point value is on record for COc1ccc(CC(=O)N(CCCc2ccccc2)Cc2nc(C(=O)NS(=O)(=O)N(C)C)c(C)s2)c(OC)c1 [Example 126]
## Output 132 to 135 °C

## Input Tell us which melting point value is on record for CCNS(=O)(=O)[N-]C(=O)c1csc(CN(CCCc2ccccc2)C(=O)c2cc(OC)c(C)c(OC)c2)n1.[K+]
## Output 203 to 205 °C

## Input Tell us which melting point value is on record for COc1ccc([C@@H](O)C(=O)N(CCCc2ccccc2)Cc2nc(C(=O)NS(=O)(=O)N(C)C)c(C)s2)cc1 [Example 290]
## Output 110 to 112 °C

## Input Tell us which melting point value is on record for COc1ccc(C2(C(=O)N(CCCc3cccc(F)c3)Cc3nc(C(=O)NS(=O)(=O)N(C)C)c(C)s3)CC2)nc1 [Example 208]
## Output 114 to 115 °C

## Input Tell us which melting point value is on record for COc1cc(C(=O)N(CCCc2ccccc2)Cc2csc(C(=O)NS(N)(=O)=O)n2)cc(OC)c1C [Example 62]
## Output 173 to 175 °C

## Input Tell us which melting point value is on record for COc1cc(C(=O)N(CCCc2ccccc2)Cc2nc(C(=O)NS(C)(=O)=O)cs2)cc(OC)c1C [Example 108]
## Output 133 to 134 °C

## Input Tell us which melting point value is on record for CCN(CCO)S(=O)(=O)NC(=O)c1csc(CN(CCCc2ccccc2)C(=O)c2cc(OC)c(C)c(OC)c2)n1 [Example 170]
## Output 127 to 129 °C

# credit: patent US8669246B2
